- assay-target: GIPR (CHO-K1-hGIPR cells) (Homo sapiens)
- Construct: host or cells: CHO-K1
- Sequence (P48546 22-466): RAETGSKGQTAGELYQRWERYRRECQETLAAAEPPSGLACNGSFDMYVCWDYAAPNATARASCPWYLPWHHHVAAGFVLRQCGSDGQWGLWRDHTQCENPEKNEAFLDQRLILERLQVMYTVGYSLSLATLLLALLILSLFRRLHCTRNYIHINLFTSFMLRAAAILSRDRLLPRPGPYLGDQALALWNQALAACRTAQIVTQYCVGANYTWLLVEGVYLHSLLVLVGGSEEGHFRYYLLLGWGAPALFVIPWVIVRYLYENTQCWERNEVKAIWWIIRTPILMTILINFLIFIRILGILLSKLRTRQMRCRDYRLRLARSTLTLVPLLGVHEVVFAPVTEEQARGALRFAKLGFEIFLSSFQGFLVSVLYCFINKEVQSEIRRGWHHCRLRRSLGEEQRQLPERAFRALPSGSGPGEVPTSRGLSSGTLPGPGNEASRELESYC
- test-details: FACS binding assay
- condition-description: competition with 20 nM GIP-057, 4° C., 1 hour, read-out: pIC50 Category (converted)
*1 amine or outer side, *2 acyl side, *3 side chain or, on linkers, in order; H or OH if unused. Where a SMILES comes first, the peptide text is derived from it. Bridges are numbered along the chain shown (N, C = ends). [ ]: non-standard residue; d: D form. Trp(5-Cl) = N[C@@H](Cc1c[nH]c2ccc(Cl)cc12)C(=O)O; Pyridine(2,6-diCH2) = c1cc(C[*:1])nc(C[*:2])c1; Hyp = O=C(O)[C@@H]1C[C@@H](O)CN1; Thp = NC1(C(=O)O)CCOCC1
readout-kind: IC50

compound	result
CC[C@H](C)[C@@H]1NC(=O)[C@H](CC(C)C)NC(=O)C2(CCOCC2)NC(=O)[C@@H](NC(=O)[C@@H](CC(C)C)NC(=O)[C@H](CCC(=O)O)NC(=O)[C@@H]2C[C@@H](O)CN2C(=O)[C@H](Cc2c[nH]c3ccc(Cl)cc23)NC(=O)[C@H](Cc2c[nH]c3ccccc23)NC(=O)[C@H](CCC(N)=O)NC(C)=O)CSCc2cccc(n2)CSC[C@@H](C(N)=O)NC1=O [GIP-204] (Ac-QW[Trp(5-Cl)][Hyp]E[dL]C[Thp]LIC-NH2; linker 7-11 via Pyridine(2,6-diCH2))	< 10 nM

These measurements were taken from patent US20250296971A1.
